Cited source: ChEMBL document CHEMBL3885861

Organism: Rattus norvegicus
Test: Open TG-GATES - Regimen: Single
Assay type: toxicity, organism-based, Sprague-Dawley
Design: regimen Single, gender Male, age 6 weeks
Conditions: in vivo, po, 0 mg/kg, 6 h, tissue Plasma, route gavage, dose level Control
Listed here: items and their measured RALB.
Give the number; g/dL is assumed, so skip it.

1) COC(=O)C1=C(C)NC(C)=C(C(=O)OC)C1c1ccccc1[N+](=O)[O-] [NIFEDIPINE]    2.5
2) CNC(=C[N+](=O)[O-])NCCSCc1ccc(CN(C)C)o1 [RANITIDINE]    3.4

Query: Please report RALB for the following compound: O=C(OC[C@H]1O[C@@H](OC(=O)c2cc(O)c(O)c(OC(=O)c3cc(O)c(O)c(O)c3)c2)[C@H](OC(=O)c2cc(O)c(O)c(OC(=O)c3cc(O)c(O)c(O)c3)c2)[C@@H](OC(=O)c2cc(O)c(O)c(OC(=O)c3cc(O)c(O)c(O)c3)c2)[C@@H]1OC(=O)c1cc(O)c(O)c(OC(=O)c2cc(O)c(O)c(O)c2)c1)c1cc(O)c(O)c(OC(=O)c2cc(O)c(O)c(O)c2)c1 [TANNIC ACID]
Result: 3.6

Query: Read the entry Brc1ccccc1 [BROMOBENZENE] and write its reported RALB.
Result: 2.6

Query: Identify measured RALB corresponding to Nc1c2c(nc3ccccc13)CCCC2 [TACRINE]
Result: 2.9

Query: Provide only the value of recorded RALB for CS(=O)(=O)O.Cc1ccc(NC(=O)c2ccc(CN3CCN(C)CC3)cc2)cc1Nc1nccc(-c2cccnc2)n1 [IMATINIB MESYLATE]
Result: 4
